Hey, just so you know, these numbers are from ChEMBL document CHEMBL5143671.

Collected CLH values appear next to each entry.
study_conditions: rat, microsomes, 0.5 h, 0.5 µM
endpoint_name: CLH

smiles_entry | result
N#Cc1ccc(Oc2ccc3nc(OCC(=O)N4CCNC(=O)C4)ccc3c2)cc1 | < 50 mL/min/kg
N#Cc1ccc(Oc2ccc3nc(OCC(=O)NCC(N)=O)ccc3c2)cc1 | < 50 mL/min/kg
O=C1CN(C(=O)COc2ccc3cc(Oc4ccc(C(F)(F)F)cn4)ccc3n2)CCN1 | < 61.7 mL/min/kg
N#Cc1ccc(Oc2ccc3nc(OCC(=O)N4CCOCC4)ccc3c2)cc1 | < 50 mL/min/kg
NC(=O)CNC(=O)COc1ccc2cc(Oc3ccccn3)ccc2n1 | < 45 mL/min/kg
O=C1CN(C(=O)COc2ccc3cc(Oc4ccccn4)ccc3n2)CCN1 | < 65 mL/min/kg
